Assay: Darktoxicity against human HeLa cells assessed as cell survival at > 0.5 microM after 18 hrs by MTT assay
Type: cell-based
Conditions: read-out: Activity
propertyName: viability at 18 h

Sample COCc1ccc(C2=Cc3nc2ccc2[nH]c(cc2-c2ccc(C[n+]4ccccc4)cc2)c2nc(ccc4[nH]c3cc4-c3ccc(C[n+]4ccccc4)cc3)C(c3ccc(C[n+]4ccccc4)cc3)=C2)cc1.[Br-].[Br-].[Br-] ; viability at 18 h observed: > 90%
